Test system: Nakaseomyces glabratus
Run description: Fungicidal activity against Candida glabrata ATCC 90030 assessed as fungal growth inhibition incubated for 18 to 24 hrs by alamar blue assay
Type: functional
Conditions: Nakaseomyces glabratus, ATCC 90030, time 18-24 hrs; read-out: MFC
Please go through the items and note down their MFC.
Param answer (str): number followed by unit.

Past entries and their recorded results:
Give Nakaseomyces glabratus MFC for CCCCCCCCCCCCCCC1(O)C(C)=C(C)C2=[N+](Cc3ccc(Cl)cc3)CCCN21 (stereo not drawn) 2.1 µM

Next: CCCCCCCCCCCCCCC1(O)C(C)=C(C)C2=[N+](Cc3ccc(Br)cc3)CCCN21 (stereo not drawn) 2 µM

Now for another entry.
Param readout = MFC; param system = Nakaseomyces glabratus; param query = CCCCCCCCCCCCCCC1(O)C(C)=C(C)C2=[N+](Cc3ccc([N+](=O)[O-])cc3)CCCN21 (stereo not drawn) ; response: value 2.1 µM
